I'd appreciate it if you could supply IC50, in vitro kinase assay PKB values for the items below.
# SYSTEM_TESTED: protein kinase B (PKB)
# EXPERIMENT: cell-based or functional assay
Square brackets hold non-standard residues; d marks the D form. * marks the point of attachment. Cholesteryloxycarbonyl = CC(C)CCC[C@@H](C)[C@H]1CC[C@H]2[C@@H]3CC=C4C[C@@H](OC(=O)*)CC[C@]4(C)[C@H]3CC[C@]12C; hLeu = CC(C)CC[C@H](N)C(=O)O; Nva = CCC[C@H](N)C(=O)O; Dap = NC[C@H](N)C(=O)O
# number only, unit nM dropped from output

Specify measured IC50, in vitro kinase assay PKB for Cholesteryloxycarbonyl-GGRPR[Nva]Y[Dap][hLeu]-NH2 (SMILES CCC[C@H](NC(=O)[C@H](CCCNC(=N)N)NC(=O)[C@@H]1CCCN1C(=O)[C@H](CCCNC(=N)N)NC(=O)CNC(=O)CNC(=O)O[C@H]1CC[C@@]2(C)C(=CC[C@H]3[C@@H]4CC[C@H]([C@H](C)CCCC(C)C)[C@@]4(C)CC[C@@H]32)C1)C(=O)N[C@@H](Cc1ccc(O)cc1)C(=O)N[C@@H](CN)C(=O)N[C@@H](CCC(C)C)C(N)=O) [PTR 6328] .
1000

Specify measured IC50, in vitro kinase assay PKB for Cholesteryloxycarbonyl-[dK][dK]RPR[Nva]Y[Dap][hLeu]-NH2 (SMILES CCC[C@H](NC(=O)[C@H](CCCNC(=N)N)NC(=O)[C@@H]1CCCN1C(=O)[C@H](CCCNC(=N)N)NC(=O)[C@@H](CCCCN)NC(=O)[C@@H](CCCCN)NC(=O)O[C@H]1CC[C@@]2(C)C(=CC[C@H]3[C@@H]4CC[C@H]([C@H](C)CCCC(C)C)[C@@]4(C)CC[C@@H]32)C1)C(=O)N[C@@H](Cc1ccc(O)cc1)C(=O)N[C@@H](CN)C(=O)N[C@@H](CCC(C)C)C(N)=O) [PTR 6318] .
200
